# experiment.notes: Clinical trial on rheumatoid arthritis patients: pharmacokinetics (plasma concentration)
# Assay type: in vivo, humans
# particulars: human, Day 7 after administration, 75 mg once daily oral
metric.name: half-life at 168 h (h)
Output spec: scalar in h, unitless text.

I have this compound here, CC(C)Nc1nc([C@@H](C)O)cc2cnc(Nc3ccc(N4CCNCC4=O)cn3)nc12 , and I need its recorded half-life at 168 h.
14.6

----------
# experiment.notes: Clinical trial on rheumatoid arthritis patients: pharmacokinetics (plasma concentration)
# Format: in vivo, humans
# particulars: human, Day 7 after administration, 25 mg once daily oral
metric.name: half-life at 168 h (min)
Output spec: scalar in min, unitless text.

I have this compound here, CC(C)Nc1nc([C@@H](C)O)cc2cnc(Nc3ccc(N4CCNCC4=O)cn3)nc12 , and I need its recorded half-life at 168 h.
714

----------
# experiment.notes: Clinical trial on rheumatoid arthritis patients: pharmacokinetics (plasma concentration)
# Format: in vivo, humans
# particulars: human, Day 7 after administration, 10 mg once daily oral
metric.name: half-life at 168 h (h)
Output spec: scalar in h, unitless text.

I have this molecule here, CC(C)Nc1nc([C@@H](C)O)cc2cnc(Nc3ccc(N4CCNCC4=O)cn3)nc12 , and I need its recorded half-life at 168 h.
12.9
